measurementTarget: T1, human OGF receptor (OGFr), native, in nuclear preparations of human cells and tissues (human, UniProt Q9NZT2 1-662, limits assumed)
T1 construct: Native receptor in nuclear homogenates (placenta, PANC-1, MIA PaCa-2, Capan-1, BxPC-3, pancreatic tissue, head and neck tissue); also called zeta opioid receptor; receptor for OGF
T1 chain: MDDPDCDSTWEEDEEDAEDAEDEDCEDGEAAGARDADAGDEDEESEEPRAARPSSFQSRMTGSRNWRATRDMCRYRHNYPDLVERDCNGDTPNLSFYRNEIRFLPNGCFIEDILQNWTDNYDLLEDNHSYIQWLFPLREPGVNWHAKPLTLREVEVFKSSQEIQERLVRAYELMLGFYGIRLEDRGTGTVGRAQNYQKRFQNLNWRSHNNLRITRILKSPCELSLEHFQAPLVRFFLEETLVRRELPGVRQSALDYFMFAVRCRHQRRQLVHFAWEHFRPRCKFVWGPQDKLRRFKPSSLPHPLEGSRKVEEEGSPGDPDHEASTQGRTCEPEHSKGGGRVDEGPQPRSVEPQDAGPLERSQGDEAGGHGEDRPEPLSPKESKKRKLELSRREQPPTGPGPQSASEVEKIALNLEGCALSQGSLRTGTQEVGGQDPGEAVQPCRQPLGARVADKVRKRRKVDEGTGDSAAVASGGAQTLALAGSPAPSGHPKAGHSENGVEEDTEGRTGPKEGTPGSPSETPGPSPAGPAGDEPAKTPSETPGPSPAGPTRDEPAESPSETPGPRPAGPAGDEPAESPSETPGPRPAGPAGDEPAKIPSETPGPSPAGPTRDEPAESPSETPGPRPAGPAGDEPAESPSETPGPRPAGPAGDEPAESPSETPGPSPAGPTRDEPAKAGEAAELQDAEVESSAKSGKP
assayProcedure: competition with [3H]-[Met5]-enkephalin, PANC-1 nuclear homogenates; IC50/Kd
Experimental: Each concentration was run in triplicate and every compound was tested twice. Competition experiments using 1 or 2 nM [³H]
Listed below: IC50 values for each entry.
measure: IC50

binder="YGGFL (peptide, UniProt P01210 230-234, looked up, domain: Leucine enkephalin) [Leucine enkephalin]" measuredresult="> 100 µM"
binder="YGGFLRRI (peptide, UniProt P01213 207-214, looked up, domain: Dynorphin A1-8; 1-8 counts on dynorphin A, not on the precursor) [dynorphin A1-8]" measuredresult="> 100 µM"

All figures here come from patent US20080050363A1.
